Ref: PubChem BioAssay

# methodNotes: MELAS cybrid and Rieske KO viability enhancers – cell-based, MELAS cybrids, Rieske KO mouse fibroblasts, CellTiter-Glo, primary screen (AID 1508586);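 also: test concentration not given here; z relative to plate mean and SD of compound and empty wells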
# assaySetup: Rieske KO mouse fibroblast survival, low glucose, CellTiter-Glo 72 h
Attribute: z-score
Output: the number by itself.

Look over these answered cases.
molecule=CC1=NN(c2ccc(C(=O)O)cc2)C(=O)C1=Cc1ccc(-c2cc(C)c(C)cc2[N+](=O)[O-])o1 experimentalreadout=z-score obsvalue=0.107
molecule="O=C(C=Cc1ccccc1)NC(NC(=S)Nc1cccc2cccnc12)C(Cl)(Cl)Cl (centres undefined)" experimentalreadout=z-score obsvalue=0.21
molecule=CN(Cc1cscn1)C(=O)c1nn(CC2CC2)c2c1CN(C(=O)Cn1cnc3ccccc31)CC2 experimentalreadout=z-score obsvalue=-0.0924
molecule=O=C(Oc1ccccc1)N1CCN2C(=O)[C@@H]3C[C@@H](O)CN3C(=O)[C@H]2C1 experimentalreadout=z-score obsvalue=-0.267
molecule="COc1cc(O)cc(C2CC(=O)c3c(O)cc(OC4OC(CO)C(O)C(O)C4OC4OC(C)C(O)C(O)C4O)cc3O2)c1 (centres undefined)" experimentalreadout=z-score obsvalue=-0.0453
molecule=NC(=O)Cc1c[nH]c2ccccc12 experimentalreadout=z-score obsvalue=-0.479
molecule=N#Cc1c(Oc2ccc(F)c(NC(=O)Cc3cccc(C(F)(F)F)c3)c2)ccc2nc(NC(=O)C3CC3)sc12 experimentalreadout=z-score obsvalue=0.158
molecule="CCCC(Nc1nc(-c2ccc(NC(=O)NCC)c(OC)c2)ncc1C)c1cccnc1 (centres undefined)" experimentalreadout=z-score obsvalue=-1.09

Now for another entry.
Entry "Fc1ccc(CC2CCNCC2)cc1" : reported z-score = ?
0.0714

---

# methodNotes: viability loss with induced miR-34 in A549 – imaging, A549 dox-inducible miR-34, nuclei and caspase counts, primary screen (AID 1347080); also: test concentration not given here
# assaySetup: A549 miR-34 inducible, Hoechst nuclei count, 48 h; measured here: relative caspase fold change +Dox/-Dox
Lab note: anything with fold change at or over 1 counts as criterion met; the rest go in criterion not met.

Example results:
compound=Cc1ccc(-c2noc([C@@]34CC[C@@](C)(C(=O)O3)C4(C)C)n2)cc1Cl discretelabel="criterion met"
compound=COc1ccccc1Cn1ncc2[nH]c(-c3ccccc3OC)nc21 discretelabel="criterion met"
compound=CC(=O)N[C@@H](CC(C)C)C(=O)N[C@@H](CC(C)C)C(=O)N[C@H](C=O)CCCN=C(N)N discretelabel="criterion not met"

Form field: fold change at least 1? Entry: O=C(CCCCCN1CCN(c2ccccc2-c2ccccc2)CC1)NC1CCCc2ccccc21 (stereo not given)
criterion met

Form field: fold change at least 1? Entry: "Cc1nc(C)c(-c2ccnc(N)n2)s1"
criterion not met

---

Attribute: fold change
# methodNotes: viability loss with induced miR-34 in A549 – imaging, A549 dox-inducible miR-34, nuclei and caspase counts, primary screen (AID 1347080); also: test concentration not given here
# assaySetup: A549 miR-34 inducible, Hoechst nuclei count, 48 h; measured here: relative caspase fold change +Dox/-Dox
Output: the number by itself.

molecule="CC1OC(n2cc(F)c(=O)[nH]c2=O)C(O)C1O (stereo unspecified)" experimentalreadout="fold change" obsvalue=2.09
molecule=CCN(CC)CCNC(=O)c1c(C)[nH]c(C=C2C(=O)Nc3ccc(F)cc32)c1C experimentalreadout="fold change" obsvalue=1.2
molecule=Cc1ccc(S(=O)(=O)n2c(N)nc3ccccc32)cc1 experimentalreadout="fold change" obsvalue=0.588
molecule=O=C(O)CCC(=O)Nc1ccc(Br)cn1 experimentalreadout="fold change" obsvalue=0.548
molecule=N#CC(C#N)=C(N)/C(C#N)=C/c1ccc(O)cc1 experimentalreadout="fold change" obsvalue=1.36

Entry "COC(=O)c1ccccc1O" : reported fold change = ?
1.32

Entry COC1O[C@H]2O[C@@]3(C)CC[C@H]4[C@@H](C)CC[C@@H]([C@H]1C)[C@@]24OO3 (stereo partly specified) : reported fold change = ?
1.37
